B1: Twister Ribozyme (parent)
chain: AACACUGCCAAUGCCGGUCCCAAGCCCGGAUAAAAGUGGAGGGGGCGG

Variants of: B1
Assay: self-cleavage, relative activity (ratio to wild type); higher = more cleavage; co-transcriptional
READOUT_TYPE: self-cleavage
// return a plain number; no unit text

AACACUGCCGAUGCCGGUACCAAGCCCGGAUAAAAGUGGAGGGGGCGG [A10G C19A]: 0.472
AACACUGCCAAAGUCGGUCCCAAGCCCGGAUAAAAGUGGAGGGGGCGG [U12A C14U]: 1.05
AACACUGCCGAUGCCGGUCCCAAGCCCGGAUAAAAGUGGUGGGGGCGG [A10G A40U]: 0.157
AACACUGUCAAUGCCGGUCCCAAGCCCGGAUAAAAGUGGAGGGGGCGA [C8U G48A]: 0.45
AACACUGCCAAUUCUGGUCCCAAGCCCGGAUAAAAGUGGAGGGGGCGG [G13U C15U]: 0.317
AACAGUGCCAAUGCCGGUCCCAAGCCCGGAUAAAAGUGGAGGCGGCGG [C5G G43C]: 0.122
UACACUGCCAAUUCCGGUCCCAAGCCCGGAUAAAAGUGGAGGGGGCGG [A1U G13U]: 0.0563
AACACUGCCUAUGCCGGUCCCAAGCCCGGAUAAAAGUGGAGGGGGUGG [A10U C46U]: 0.836

Ask | I'd like to know its self-cleavage. The variant in question is AACACUGCCAAUGAUGGUCCCAAGCCCGGAUAAAAGUGGAGGGGGCGG [C14A C15U]
Reply | 0.746

Ask | I'd like to know its self-cleavage. The variant in question is AACACUGCCAAUUCCGUUCCCAAGCCCGGAUAAAAGUGGAGGGGGCGG [G13U G17U]
Reply | 0.101

Ask | I'd like to know its self-cleavage. The variant in question is AACACUGCCAAUGCGGGUCACAAGCCCGGAUAAAAGUGGAGGGGGCGG [C15G C20A]
Reply | 0.0716
